B1: SPATS1 (parent)
chain: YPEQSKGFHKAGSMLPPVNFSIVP

Variants of: B1
Assay: protein stability index of a GFP-peptide fusion (GPS, HEK-293T) (PSI 1-6); higher = more stable;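 note: lentivirally expressed fusions sorted by FACS into six bins by GFP to DsRed ratio, PSI derived from sequencing read proportions per bin multiplied by bin number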
Conditions: c terminus: a fixed tail appended
protein stability index values for the variants below.
Readout Type: protein stability index

Query Sequence	Readout Type	Measured Value
YPEQSKGFHKAGSMLPPVNWSIVP [F20W]	protein stability index	1.57
YPEQSKGFHKAGSMLPPVNFSIDP [V23D]	protein stability index	1.88
YPEQDKGFHKAGSMLPPVNFSIVP [S5D]	protein stability index	2.74
YPEQSKGFGKAGSMLPPVNFSIVP [H9G]	protein stability index	2.13
YPEQSKGFHKAGSALPPVNFSIVP [M14A]	protein stability index	2.13
YDEQSKGFHKAGSMLPPVNFSIVP [P2D]	protein stability index	3.19
GPEQSKGFHKAGSMLPPVNFSIVP [Y1G]	protein stability index	3.26
YPEQSQGFHKAGSMLPPVNFSIVP [K6Q]	protein stability index	1.71
YPEQSKGFHKAGSMLPPYNFSIVP [V18Y]	protein stability index	1.91
